# Tested System: tau (Homo sapiens, UniProt P10636)
# Sequence (P10636 623-695 limits assumed): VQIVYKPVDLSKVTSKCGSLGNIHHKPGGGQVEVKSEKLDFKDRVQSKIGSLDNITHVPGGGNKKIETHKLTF
# Protocol: MCE Phenols Library screening, tau biosensor cell seeding assay (AvZ)
# Format: cell-based
# Experimental Setup: average of raw data 1 and 2
*1 amine or outer side, *2 acyl side, *3 side chain or, on linkers, in order; H or OH if unused. Where a SMILES comes first, the peptide text is derived from it. Bridges are numbered along the chain shown (N, C = ends). [ ]: non-standard residue; d: D form. hTyr(3S-OH,4S-OH,3'-OSO3H) = N[C@H](C(=O)O)[C@H](O)[C@@H](O)c1ccc(O)c(OS(=O)(=O)O)c1; Orn(4R-OH,5R-OH) = O=C([C@H](C[C@@H](O)[C@@H](O)N[*:3])N[*:1])[*:2]; Pro(3S-OH,4S-Me) = C[C@H]1CN[C@H](C(=O)O)[C@H]1O; Gln(3R-OH) = NC(=O)C[C@@H](O)[C@H](N)C(=O)O; Hyp = O=C(O)[C@@H]1C[C@@H](O)CN1
Reported Metric: av puncta
Enter the number alone.

Lookup: So what's the measured av puncta for this one? "O=C(/C=C/c1ccc(O)cc1)NCCc1c[nH]c2ccc(O)cc12"
Found: 17799.1

Lookup: So what's the measured av puncta for this one? "COC(=O)[C@]1(O)C[C@@H](O)[C@@H](O)[C@H](OC(=O)/C=C/c2ccc(O)c(O)c2)C1"
Found: 18786.4

Lookup: So what's the measured av puncta for this one? COc1ccc2cc1Oc1ccc(cc1)C[C@H]1c3cc(c(OC)cc3CCN1C)Oc1c(O)c(OC)cc3c1[C@@H](C2)N(C)CC3 [(R)-Fangchinoline]
Found: 24385.2

Lookup: So what's the measured av puncta for this one? "C=CCc1ccc(O)c(-c2cc(CC=C)ccc2O)c1"
Found: 27065.9

Lookup: So what's the measured av puncta for this one? O=C1c2c(O)cccc2C([C@@H]2O[C@H](CO)[C@@H](O)[C@H](O)[C@H]2O)c2cc(CO)cc(O)c21 (some centres unmarked)
Found: 21886.9

Lookup: So what's the measured av puncta for this one? "O=c1cc(-c2ccc(O)cc2)oc2cc(O)c(O)c(O)c12"
Found: 9747.69

Lookup: So what's the measured av puncta for this one? "COc1cc2ccc(=O)oc2c(OC)c1O"
Found: 24789.8

Lookup: So what's the measured av puncta for this one? "COc1cc2oc(-c3ccccc3)cc(=O)c2c(O)c1OC"
Found: 21820.5

Lookup: So what's the measured av puncta for this one? "COc1ccc(C(C)=O)c(O)c1"
Found: 22534.1

Lookup: So what's the measured av puncta for this one? "O=c1c(O[C@@H]2O[C@@H](CO)[C@H](O)[C@H]2O)c(-c2ccc(O)c(O)c2)oc2cc(O)cc(O)c12"
Found: 32432

Lookup: So what's the measured av puncta for this one? CC(Cc1ccc(O)c(O)c1)C(C)Cc1ccc(O)c(O)c1 (centres unmarked) [Nordihydroguaiaretic acid]
Found: 17666.9

Lookup: So what's the measured av puncta for this one? "COc1cc(OC)c2c(=O)cc(-c3ccc(O)c(O)c3)oc2c1"
Found: 40573.2

Lookup: So what's the measured av puncta for this one? C[C@@H](O)[C@@H]1NC(=O)[C@@H](N)C[C@@H](O)[C@@H](O)NC(=O)[C@@H]2[C@@H](O)[C@@H](C)CN2C(=O)[C@H]([C@H](O)CC(N)=O)NC(=O)[C@H]([C@H](O)[C@@H](O)c2ccc(O)c(OS(=O)(=O)O)c2)NC(=O)[C@@H]2C[C@@H](O)CN2C1=O [FR179642] (H-[Orn(4R-OH,5R-OH)]T[Hyp][hTyr(3S-OH,4S-OH,3'-OSO3H)][Gln(3R-OH)][Pro(3S-OH,4S-Me)]; lactam 1-C)
Found: 30866.7

Lookup: So what's the measured av puncta for this one? "O=C(O[C@H]1[C@H](Oc2c(-c3ccc(O)c(O)c3)oc3cc(O)cc(O)c3c2=O)O[C@H](CO)[C@H](O)[C@@H]1O)c1cc(O)c(O)c(O)c1"
Found: 9615.07

---

Task for the reader: assign each of the following compounds its reported Z repl 1.
# Tested System: tau (Homo sapiens)
# Protocol: MCE Phenols Library screening, tau biosensor cell seeding assay (AvZ)
# Type: cell-based
# Experimental Setup: Z score, replicate 1
Enter the number alone.

Lookup: So what's the measured Z repl 1 for this one? "C[C@@H]1O[C@@H](O[C@H]2C(=O)c3c(O)cc(O)cc3O[C@H]2c2ccc(O)c(O)c2)[C@H](O)[C@H](O)[C@H]1O"
Found: 0.661

Lookup: So what's the measured Z repl 1 for this one? "COc1ccc(-c2coc3cc(O)c(OC)c(O)c3c2=O)cc1"
Found: 0.554

Lookup: So what's the measured Z repl 1 for this one? "O=C(O)Cc1cc(O)ccc1O[C@@H]1O[C@H](CO)[C@@H](O)[C@H](O)[C@H]1O"
Found: -0.056

Lookup: So what's the measured Z repl 1 for this one? COc1ccc2cc3[n+](cc2c1O)CCc1cc2c(cc1-3)OCO2.[Cl-] [Berberrubine (chloride)]
Found: 0.031

---

# Tested System: tau (Homo sapiens, UniProt P10636)
# Protocol: MCE Phenols Library screening, tau biosensor cell seeding assay (AvZ)
# Type: cell-based
# Experimental Setup: 10 μM phenol in cell cultures, AD brain homogenate preincubated 16 hours, two biological replicates; positive = catalyzes seeding, negative = inhibits
Reported Metric: AvZ (average z score of seeding, SDs from the mean level of seeding)

Lookup: So what's the measured AvZ (average z score of seeding, SDs from the mean level of seeding) for this one? "O=Cc1ccc(O)c(O)c1"
Found: -0.588

Lookup: So what's the measured AvZ (average z score of seeding, SDs from the mean level of seeding) for this one? N#CCc1ccc(O)cc1 [4-Hydroxybenzyl cyanide]
Found: -0.064

Lookup: So what's the measured AvZ (average z score of seeding, SDs from the mean level of seeding) for this one? O=C(O)c1ccc(O)cc1O [2,4-Dihydroxybenzoic acid]
Found: 0.126

Lookup: So what's the measured AvZ (average z score of seeding, SDs from the mean level of seeding) for this one? "CCCCCCCCCCCCCCCc1cccc(O)c1C(=O)O"
Found: -0.119

Lookup: So what's the measured AvZ (average z score of seeding, SDs from the mean level of seeding) for this one? COc1cc(/C=C/C(=O)OC(C)C)ccc1O [Isopropyl ferulate]
Found: -0.332

---

Task for the reader: assign each of the following compounds its reported av puncta.
# Tested System: tau (Homo sapiens, UniProt P10636)
# Protocol: MCE Phenols Library screening, tau biosensor cell seeding assay (AvZ)
# Format: cell-based
# Experimental Setup: average puncta of the two replicates
Enter the number alone.

Lookup: So what's the measured av puncta for this one? C[C@@H]1O[C@@H](Oc2cc(O)c3c(=O)c(O)c(-c4ccc(O)c(O)c4)oc3c2)[C@H](O)[C@H](O)[C@H]1O [Vincetoxicoside B]
Found: 11642.8

Lookup: So what's the measured av puncta for this one? "COc1cc(/C=C/C(=O)O[C@H]2[C@H](O)[C@@H](CO)O[C@@]2(CO)O[C@H]2O[C@H](CO)[C@@H](O)[C@H](O)[C@H]2O)ccc1O"
Found: 13916.2

Lookup: So what's the measured av puncta for this one? "O=c1c(O[C@@H]2O[C@H](CO)[C@@H](O)[C@H](O)[C@H]2O)c(-c2ccc(O)cc2)oc2cc(O)cc(O)c12"
Found: 12999

Lookup: So what's the measured av puncta for this one? CC(=O)c1ccc(O)c(O)c1 [3',4'-Dihydroxyacetophenone]
Found: 12205

Lookup: So what's the measured av puncta for this one? "CC(C)=CCc1c(O)c(CC=C(C)C)c2oc3c(O)cccc3c(=O)c2c1O"
Found: 11358

Lookup: So what's the measured av puncta for this one? "Cc1cc(O)c(C)c2c1O[C@](C)(CCC[C@H](C)CCC[C@H](C)CCCC(C)C)CC2"
Found: 15701

Lookup: So what's the measured av puncta for this one? "C=C(C)[C@H](CC=C(C)C)Cc1c(O)cc(O)c2c1O[C@H](c1ccc(O)cc1O)CC2=O"
Found: 13130.1

Lookup: So what's the measured av puncta for this one? "COc1cc(/C=C/C(=O)O)ccc1O"
Found: 14374.8

Lookup: So what's the measured av puncta for this one? Oc1cc2cc[nH]c2cc1O [5,6-Dihydroxyindole]
Found: 13123.8

Lookup: So what's the measured av puncta for this one? "CC(C)=CCc1c2c(c(O)c3c1O[C@]14C(=C[C@@H]5C[C@H]1C(C)(C)O[C@@]4(C/C=C(/C)C(=O)O)C5=O)C3=O)C=CC(C)(C)O2"
Found: 12492.8

Lookup: So what's the measured av puncta for this one? COC1=C[C@@H]2[C@@H]3Cc4ccc(OC)c(O)c4[C@]2(CCN3C)CC1=O.Cl [Sinomenine hydrochloride]
Found: 16340.1

Lookup: So what's the measured av puncta for this one? "O=c1cc(-c2ccccc2)oc2cc(O[C@@H]3O[C@H](CO[C@@H]4O[C@H](CO)[C@@H](O)[C@H](O)[C@H]4O)[C@@H](O)[C@H](O)[C@H]3O)c(O)c(O)c12"
Found: 13332

Lookup: So what's the measured av puncta for this one? O=C(O)Cc1c[nH]c2ccc(O)cc12 [5-Hydroxyindole-3-acetic acid]
Found: 14479.9

Lookup: So what's the measured av puncta for this one? O=C(/C=C/c1ccc(O)c(O)c1)OC[C@H]1O[C@@H](OCCc2ccc(O)c(O)c2)[C@H](O)[C@@H](O)[C@@H]1O [Calceolarioside B]
Found: 16462.2

Lookup: So what's the measured av puncta for this one? O=c1c(O)c(-c2ccc(O[C@@H]3O[C@H](CO)[C@@H](O)[C@H](O)[C@H]3O)c(O)c2)oc2cc(O)cc(O)c12 [Spiraeoside]
Found: 12842

Lookup: So what's the measured av puncta for this one? COC(=O)[C@@H](Cc1ccc(O)c(O)c1)OC(=O)/C=C/c1ccc(O)c(O)c1 [Methyl rosmarinate]
Found: 15329.6

Lookup: So what's the measured av puncta for this one? COc1ccc(-c2oc3cc(O)cc(O)c3c(=O)c2O)cc1 [Kaempferide]
Found: 13337

Lookup: So what's the measured av puncta for this one? "O=c1c2c(O)cc(O)cc2oc2c(O)ccc(O[C@@H]3O[C@H](CO)[C@@H](O)[C@H](O)[C@H]3O)c12"
Found: 14688.3

Lookup: So what's the measured av puncta for this one? "Oc1cc(O)c2c(c1)O[C@H](c1ccc(O)c(O)c1)[C@@H](O)[C@H]2O"
Found: 16774.6

Lookup: So what's the measured av puncta for this one? "O=C1c2ccccc2C(=O)c2c(O)ccc(O)c21"
Found: 12081.4

Lookup: So what's the measured av puncta for this one? "COc1cc2c(c(O)c1OC)-c1c(cc(OC)c(OC)c1OC)C[C@@H](C)[C@@H](C)C2"
Found: 16597.3

Lookup: So what's the measured av puncta for this one? O=C(/C=C/c1ccc(O)c(O)c1)N[C@@H](Cc1ccc(O)c(O)c1)C(=O)O [Clovamide]
Found: 12750.8

Lookup: So what's the measured av puncta for this one? "O=c1c(O[C@@H]2O[C@H](CO)[C@@H](O)[C@H](O)[C@H]2O)c(-c2ccc(O)c(O)c2)oc2cc(O)cc(O)c12"
Found: 16096.8

Lookup: So what's the measured av puncta for this one? "COc1ccc(C=O)cc1O"
Found: 13803.3

Lookup: So what's the measured av puncta for this one? "COc1ccc(-c2oc3c(CCC(C)(C)O)c(O)cc(O)c3c(=O)c2O)cc1"
Found: 12429.8

Lookup: So what's the measured av puncta for this one? "COc1cc(CO)ccc1O"
Found: 16813.8

Lookup: So what's the measured av puncta for this one? "COc1cc2c(O)c3c(c(-c4ccc5c(c4)OCO5)c2cc1OC)C(=O)OC3"
Found: 12650.9

Lookup: So what's the measured av puncta for this one? CC(=O)c1cc(O)ccc1O [2,5-Dihydroxyacetophenone]
Found: 14429.3

Lookup: So what's the measured av puncta for this one? "COc1ccc2c(c1O)-c1c(OC)c(OC)cc3c1[C@H](C2)N(C)CC3"
Found: 13380.4

Lookup: So what's the measured av puncta for this one? "Oc1cc(O)c2c(c1)O[C@H](c1ccc(O)c(O)c1)[C@H](O)[C@H]2c1c(O)cc(O)c2c1O[C@H](c1ccc(O)c(O)c1)[C@H](O)C2"
Found: 11690.3

Lookup: So what's the measured av puncta for this one? "O=C(O)C=Cc1ccc(O)cc1"
Found: 16011.2
